- TEST_DETAILS: protein stability index of a GFP-peptide fusion (yeast GPS) (PSI 1-4); higher = more stable; sorted into four equal gates, so the index is relative within each strain
- TEST_CONDITIONS: pdr5∆
MEASURED_ENDPOINT: protein stability index

{"BIOSEQUENCE": "NIAFDAHMSIGCLHKGK [YML031W/NDC1]", "MEASURED_VALUE": 2.7}
{"BIOSEQUENCE": "ELGAINLHALSMSLQSK [SWI1]", "MEASURED_VALUE": 2.33}
{"BIOSEQUENCE": "QNNNTLGGGGLFGQSQQ [YGR119C/NUP57]", "MEASURED_VALUE": 3.27}
{"BIOSEQUENCE": "PAQKDSSVVSEPKKPSF [YOR098C/NUP1]", "MEASURED_VALUE": 2.71}
{"BIOSEQUENCE": "LEANGRSLEKVNNSVSK [SSN2]", "MEASURED_VALUE": 3.47}
{"BIOSEQUENCE": "DQPQSSEAKRTKFSNPA [BRR2]", "MEASURED_VALUE": 2.65}
{"BIOSEQUENCE": "LVPKRCLFESLSNEAAL [RPO31]", "MEASURED_VALUE": 2.84}
